molecular target: human CCR5 receptor (hCCR5) (human), P51681; experiment: inhibition of gp120/sCD4 complex binding to CCR5-expressing Cf2Th cells by competing peptide
Sequence (P51681 whole entry): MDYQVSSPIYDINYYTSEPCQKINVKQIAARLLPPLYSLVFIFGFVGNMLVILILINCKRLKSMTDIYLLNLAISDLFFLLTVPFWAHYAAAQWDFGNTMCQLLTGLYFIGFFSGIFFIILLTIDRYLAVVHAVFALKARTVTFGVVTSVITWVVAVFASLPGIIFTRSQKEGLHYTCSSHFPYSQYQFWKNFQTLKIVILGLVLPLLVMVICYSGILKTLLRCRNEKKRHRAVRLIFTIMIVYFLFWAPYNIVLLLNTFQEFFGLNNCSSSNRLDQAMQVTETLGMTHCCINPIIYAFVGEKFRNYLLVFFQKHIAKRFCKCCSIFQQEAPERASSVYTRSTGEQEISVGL
PROPERTY_MEASURED: pEC50
# log scale: pEC50 equals minus log10 of the concentration in mol/L

A selection of reference data follows.
>>> number("NSEYR (modifications not checked)")
10.10
>>> number("NSSYT (modifications not checked)")
9.70
>>> number("TTSYT (modifications not checked)")
10.30

# ---- query binder ----
Memo: NNRYR (modifications not checked) , reported pEC50: 9.70
